target: PADI4, Q9UM07; assay: log2 enrichment score relative to parent PADI4_3 peptide (binding to PADI4); higher = tighter binding than parent; details: CaCl2: 10 mM
Sequence (Q9UM07 whole entry): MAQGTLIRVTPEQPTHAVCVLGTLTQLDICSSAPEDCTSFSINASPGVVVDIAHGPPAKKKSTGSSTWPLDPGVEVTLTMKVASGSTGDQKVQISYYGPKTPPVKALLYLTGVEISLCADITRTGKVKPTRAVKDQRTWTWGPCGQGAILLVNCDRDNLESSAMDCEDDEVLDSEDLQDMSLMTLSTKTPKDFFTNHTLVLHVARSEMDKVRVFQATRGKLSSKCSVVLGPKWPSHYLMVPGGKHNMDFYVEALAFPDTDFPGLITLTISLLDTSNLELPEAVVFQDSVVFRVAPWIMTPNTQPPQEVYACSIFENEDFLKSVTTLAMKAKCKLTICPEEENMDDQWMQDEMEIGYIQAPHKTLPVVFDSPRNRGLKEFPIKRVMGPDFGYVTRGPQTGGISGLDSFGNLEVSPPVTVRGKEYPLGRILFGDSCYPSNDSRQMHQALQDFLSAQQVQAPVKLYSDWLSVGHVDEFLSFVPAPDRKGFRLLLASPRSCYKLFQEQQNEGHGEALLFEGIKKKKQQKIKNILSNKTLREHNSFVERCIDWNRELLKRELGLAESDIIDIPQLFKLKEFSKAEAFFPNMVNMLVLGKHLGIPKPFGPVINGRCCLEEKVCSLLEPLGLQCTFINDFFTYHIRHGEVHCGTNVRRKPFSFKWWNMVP
measure.name: log2 enrichment score

binder	recorded.measurement
YRDHHYRHPIYCG [PADI4_3_K10I K10I]	2.81
YRDHHYRGPKYCG [PADI4_3_H8G H8G]	-3.99
YRDHHYRHHKYCG [PADI4_3_P9H P9H]	-2.06
YRDHHVRHPKYCG [PADI4_3_Y6V Y6V]	-2.3
YRDHHYRHPCYCG [PADI4_3_K10C K10C]	-2.06
YRDHHLRHPKYCG [PADI4_3_Y6L Y6L]	-1.7
YRDHHYRHQKYCG [PADI4_3_P9Q P9Q]	-1.71
YRTHHYRHPKYCG [PADI4_3_D3T D3T]	-3.58
YRDHHYQHPKYCG [PADI4_3_R7Q R7Q]	-0.31
YRDHHFRHPKYCG [PADI4_3_Y6F Y6F]	-0.749
YRPHHYRHPKYCG [PADI4_3_D3P D3P]	-2.96
YRDHHSRHPKYCG [PADI4_3_Y6S Y6S]	-2.21
YRDHHYTHPKYCG [PADI4_3_R7T R7T]	-1.3
YLDHHYRHPKYCG [PADI4_3_R2L R2L]	-0.745
YRDHHYRHPKGCG [PADI4_3_Y11G Y11G]	-4.17
YRDHHYRHSKYCG [PADI4_3_P9S P9S]	-1.69
